All values here come from patent US20240158373A1.

TEST_NAME: Tissue distribution test in rats (after Ritonavir)
Assay type: in vivo, SD male rats
CONDITIONS_USED: rat, lung, po, 30 mg/kg, with Ritonavir, 0.25 h, given as x/1, read-out: Lung/plasma ratio at 0.25 h
READOUT_NAME: Kp at 0.25 h
Numbers only.

Please indicate Kp at 0.25 h recorded for "CC(C)(C)[C@H](NC(=O)C(F)(F)F)C(=O)N1[C@H]2C[C@@H]([C@H]1C(=O)N[C@H](C#N)C[C@@H]1CCNC1=O)C1(CC1)C2" 5.5

* * *

The listing below reports log10(IC50) for compounds tested on SARS-CoV-2 Mpro (Severe acute respiratory syndrome coronavirus 2).
Base-10 log of IC50, unit nM.

CC(C)(C)[C@H](NC(=O)C(F)(F)F)C(=O)N1C[C@@H]2C3C=CC(C3)[C@@H]2[C@H]1C(=O)N[C@H](C#N)C[C@@H]1CCNC1=O (single isomer, unassigned) [Compound 28A]	0.41

Each compound below has a reported value. Please supply its log10(IC50).
1. CC(C)(C)[C@H](NC(=O)C(F)(F)F)C(=O)N1C[C@@H]2C3CCC(C3)[C@@H]2[C@H]1C(=O)N[C@H](C#N)C[C@@H]1CCNC1=O (single isomer, unassigned) [Compound 29-2]
2. CC(C)(C)[C@H](NC(=O)C(F)(F)F)C(=O)N1C[C@@H]2C3C=CC(C3)[C@@H]2[C@H]1C(=O)N[C@H](C#N)C[C@@H]1CCNC1=O (single isomer, unassigned) [Compound 28]
3. CC(C)(C)[C@H](NC(=O)C(F)(F)F)C(=O)N1C[C@@H]2C3CCC(C3)[C@@H]2[C@H]1C(=O)N[C@H](C#N)C[C@@H]1CCNC1=O (single isomer, unassigned) [Compound 29-1]
4. N#C[C@H](C[C@@H]1CCNC1=O)NC(=O)[C@@H]1[C@H]2CC[C@H](C2)N1C(=O)[C@@H](NC(=O)C(F)(F)F)C12CC3CC(CC(F)(C3)C1)C2 [Compound 9]

[1.04, 1.49, 2.42, 1.40]
